Documented shrunken log2 fold change across a set of sequences
System: Escherichia coli TOP10;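 further: peptides expressed intracellularly from a pBAD plasmid library in pooled LB shake-flask culture, induced with 0.3% L-arabinose, DNA abundance read by NGS, three biological replicates, DESeq2 with apeglm shrinkage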
ASSAY_COMMENT: shrunken log2 fold change of peptide-encoding DNA abundance (4.5 h post-induction vs induction); higher = less antimicrobial activity (less host growth inhibition)
CONDITION_CONTEXT: time post-induction: 4.5 h; library: site-saturation at positions 5, 18, 19, 20
// response body must contain only the number

Examples from the recorded data:
CHAIN_SEQUENCE: RRIRKRPPRLPRPRPRPLWQPRP
shrunken log2 fold change: 0.442
--
CHAIN_SEQUENCE: RRIRPRPPRLPRPRPRPCMRPRP
shrunken log2 fold change: -0.239
--
CHAIN_SEQUENCE: RRIRCRPPRLPRPRPRPPFVPRP
shrunken log2 fold change: 0.145

Problem: Any idea what shrunken log2 fold change was measured for RRIRTRPPRLPRPRPRPANIPRP ?
Solution: -0.439

Problem: Any idea what shrunken log2 fold change was measured for RRIRRRPPRLPRPRPRPFIRPRP ?
Solution: -0.326

Problem: Any idea what shrunken log2 fold change was measured for RRIRFRPPRLPRPRPRPNEDPRP ?
Solution: 0.144

Problem: Any idea what shrunken log2 fold change was measured for RRIRLRPPRLPRPRPRPKGIPRP ?
Solution: -0.0776

Problem: Any idea what shrunken log2 fold change was measured for RRIRYRPPRLPRPRPRPACFPRP ?
Solution: -0.166

Problem: Any idea what shrunken log2 fold change was measured for RRIRDRPPRLPRPRPRPFNMPRP ?
Solution: -0.186

Problem: Any idea what shrunken log2 fold change was measured for RRIRSRPPRLPRPRPRPWAVPRP ?
Solution: -0.0517

Problem: Any idea what shrunken log2 fold change was measured for RRIRHRPPRLPRPRPRPLRAPRP ?
Solution: 0.513

Problem: Any idea what shrunken log2 fold change was measured for RRIRPRPPRLPRPRPRPKVLPRP ?
Solution: 0.038

Problem: Any idea what shrunken log2 fold change was measured for RRIRLRPPRLPRPRPRPYSAPRP ?
Solution: -0.693

Problem: Any idea what shrunken log2 fold change was measured for RRIRGRPPRLPRPRPRPMWMPRP ?
Solution: 0.118

Problem: Any idea what shrunken log2 fold change was measured for RRIRLRPPRLPRPRPRPVRIPRP ?
Solution: 0.115

Problem: Any idea what shrunken log2 fold change was measured for RRIRARPPRLPRPRPRPDPDPRP ?
Solution: 1.3

Problem: Any idea what shrunken log2 fold change was measured for RRIRKRPPRLPRPRPRPCRQPRP ?
Solution: -0.166

Problem: Any idea what shrunken log2 fold change was measured for RRIRFRPPRLPRPRPRPFDRPRP ?
Solution: 0.0332

Problem: Any idea what shrunken log2 fold change was measured for RRIRQRPPRLPRPRPRPVEIPRP ?
Solution: -0.0298

Problem: Any idea what shrunken log2 fold change was measured for RRIRARPPRLPRPRPRPKDMPRP ?
Solution: 0.263

Problem: Any idea what shrunken log2 fold change was measured for RRIRFRPPRLPRPRPRPRPQPRP ?
Solution: 0.684

Problem: Any idea what shrunken log2 fold change was measured for RRIRERPPRLPRPRPRPGGDPRP ?
Solution: 0.0586

Problem: Any idea what shrunken log2 fold change was measured for RRIRIRPPRLPRPRPRPMRHPRP ?
Solution: 0.158

Problem: Any idea what shrunken log2 fold change was measured for RRIRVRPPRLPRPRPRPTPVPRP ?
Solution: 0.465

Problem: Any idea what shrunken log2 fold change was measured for RRIRCRPPRLPRPRPRPIGIPRP ?
Solution: -0.303

Problem: Any idea what shrunken log2 fold change was measured for RRIRIRPPRLPRPRPRPETTPRP ?
Solution: -0.0691

Problem: Any idea what shrunken log2 fold change was measured for RRIRWRPPRLPRPRPRPEAQPRP ?
Solution: 0.779

Reference for the values: the supplement of paper PMC9112550
